Molecular target: T1, mouse VEGF (mouse, UniProt Q00731-2 27-190)
T1 construct: Bought recombinant protein; also called mVEGF-A; mouse VEGF-A
T1 sequence (looked up): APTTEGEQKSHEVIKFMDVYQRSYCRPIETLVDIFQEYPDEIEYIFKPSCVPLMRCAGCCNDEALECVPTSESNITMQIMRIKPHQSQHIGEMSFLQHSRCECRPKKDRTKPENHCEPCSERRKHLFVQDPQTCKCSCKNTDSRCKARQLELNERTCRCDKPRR
Experiment: ELISA and BIAcore
assay.readout: fold affinity over mother clone F

{"binder": "HF2-4 (antibody, V domains shown, also called HF-4) VH: EVQLVESGGGLVQPGGSLRLSCAASGWSMRSHGMQWVRQAPGKGLEYVAGISSDGSWRRHSAAVEGRFTISRDDSKNTAYLQMNSLRAEDTAVYYCARDFSTGYGADSIDAWGQGTLVTVSS VL: DIQMTQSPSSLSASVGDRVTITCSGGSDSAYGYGWYQQKPGKAPKTLIYWDDKRPSGVPSRFSGSRSGTDFTLTISSLQPEDFATYYCGAWEYSGGVGIFGQGTKVEIK", "reading": "≥ 10 times"}
{"binder": "HF2-13 (antibody, V domains shown) VH: EVQLVESGGGLVQPGGSLRLSCAASGFLVRSHGMQWVRQAPGKGLEYVAGISSDGSWQRVNAAVEGRFTISRDDSKNTAYLQMNSLRAEDTAVYYCARDFSTGYGADSIDAWGQGTLVTVSS VL: DIQMTQSPSSLSASVGDRVTITCSGGSDLLLGYGWYQQKPGKAPKTLIYWDDKRPSGVPSRFSGSRSGTDFTLTISSLQPEDFATYYCGAWEYSGGVGIFGQGTKVEIK", "reading": "≥ 10 times"}

# credit: patent US20160122426A1
